Sourced from ChEMBL document CHEMBL4689842

- Test system: U2OS
- assay_overview: Multiplex assay against U2OS
- Type: toxicity, cell-based
- details: human, 48 h, 10 µM, compound concentration 10 uM, replicate 1
Overview of reported Population Hoechst High Intensity Objects (%) across a group of compounds:
property_measured: Population Hoechst High Intensity Objects (%)

> print(dat)
                                   compound  measured.number
1  N#CCNC(=O)c1ccc(-c2ccnc(Nc3ccc(N4CCOCC4)cc3)n2)cc1                4
2  CC(Cc1ccc(O)c(O)c1)C(C)Cc1ccc(O)c(O)c1 (centres undefined) [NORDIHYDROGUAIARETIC ACID]                9
3  CC(/C=C1\SC(=S)N(CCCC(=O)Nc2ccc(C(=O)O)c(O)c2)C1=O)=C\c1ccccc1                2
4  CS(=O)(=O)N1CCCC(NC(=O)[C@H](CCC2CCCCC2)NC(=O)c2ccc(CNC(=O)c3cnc4ccccn34)cc2)C1 (some centres undefined)                8

###

Overview of reported Population Healthy Nuclei (%) across a group of molecules:
- System: Fibroblast
- assay_overview: Multiplex assay against human fibroblast
- Assay type: toxicity, cell-based
- details: 48 h, 10 µM, compound concentration 10 uM, replicate 2
property_measured: Population Healthy Nuclei (%)

> print(dat)
                                   molecule   tested.on              property.measured  unit.abbrev  measured.number
1  CN(c1cc(C(F)(F)F)nc(OCCC(=O)O)n1)c1cccc2c1CCC2  Fibroblast  Population Healthy Nuclei (%)            %               73
2  CC(C)[C@H](CO)Nc1nc(Nc2cccc(Cl)c2)c2ncn(C(C)C)c2n1  Fibroblast  Population Healthy Nuclei (%)            %               60
3  Cl.NC[C@@H]1O[C@H](C23CC4CC(CC(C4)C2)C3)Cc2c1ccc(O)c2O  Fibroblast  Population Healthy Nuclei (%)            %               48
4  C=CC(=O)Nc1cc(-n2c(=O)ccc3cnc4ccc(-c5ccc(NS(C)(=O)=O)cc5)cc4c32)ccc1C  Fibroblast  Population Healthy Nuclei (%)            %               42
5  CCCCCNC(=N)N/N=C/c1c[nH]c2ccc(OC)cc12.O=C(O)/C=C\C(=O)O [TEGASEROD MALEATE]  Fibroblast  Population Healthy Nuclei (%)            %               15
6  CC(Cc1ccc(O)c(O)c1)C(C)Cc1ccc(O)c(O)c1 (centres undefined) [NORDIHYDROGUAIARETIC ACID]  Fibroblast  Population Healthy Nuclei (%)            %               77
7  N#Cc1cccc(C(=O)Nc2cc(-c3ccccc3)nn2-c2ccccc2)c1  Fibroblast  Population Healthy Nuclei (%)            %               45
8  Cc1ccc(S(=O)(=O)NC2c3ccccc3Oc3ccccc32)cc1  Fibroblast  Population Healthy Nuclei (%)            %               72
9  Oc1cccc(-c2nc(N3CCOCC3)c3oc4ncccc4c3n2)c1  Fibroblast  Population Healthy Nuclei (%)            %               42
